Target: 15-hydroxyprostaglandin dehydrogenase [NAD(+)] (Homo sapiens)
Experiment: qHTS Assay for Inhibitors of HPGD (15-Hydroxyprostaglandin Dehydrogenase); also: % is scaled to controls: 0 for no effect and ±100 for the full control effect
Settings: purified HPGD, NADH fluorescence kinetic, PGE2 substrate; active compounds read low
The campaign covered roughly 150,000 compounds. About 6,500 (4.3%) were called active. Not shown: some 12% with an inconclusive outcome. The sample holds actives, similar compounds and a random draw of the others, so the mix is not that of the screen.
measured.attribute: activity change, negative = inhibition (%)
One number for each entry, in %.

Provide activity change, negative = inhibition values for the following items, in order.
1. Cc1ccccc1Nc1nc(N)nc(CSc2ccccc2)n1
2. Cc1cc(F)ccc1S(=O)(=O)Nc1ncnc2scc(-c3ccc(F)cc3)c12
3. CCc1cccc(C)c1NC(=O)CSc1nnc(-c2ccco2)n1N
4. CC(C)NC(=O)CSc1ccccc1C(=O)NCc1ccc2c(c1)OCO2

1. -2.99
2. -6.93
3. -10.6
4. -1.41

Provide activity change, negative = inhibition values for the following items, in order.
1. O=C(NNC1CC(=O)N(c2cccc(Cl)c2)C1=O)c1cccnc1 (stereo unspecified)
2. Cc1cccc(C)c1NC(=O)CSc1nnc(-c2ccccc2)n1Cc1ccc2c(c1)OCO2

-13.5
-8.72
